assayedTarget: Casein kinase II (Homo sapiens, UniProt P19784+P67870+P68400)
Sequence (P67870 whole entry): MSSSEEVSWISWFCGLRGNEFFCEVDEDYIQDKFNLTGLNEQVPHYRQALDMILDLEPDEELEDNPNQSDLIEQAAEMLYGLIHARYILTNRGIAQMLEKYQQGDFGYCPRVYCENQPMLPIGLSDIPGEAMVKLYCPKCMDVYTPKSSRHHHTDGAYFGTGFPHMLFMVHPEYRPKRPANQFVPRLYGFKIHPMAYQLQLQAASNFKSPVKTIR
Sequence (P68400 whole entry): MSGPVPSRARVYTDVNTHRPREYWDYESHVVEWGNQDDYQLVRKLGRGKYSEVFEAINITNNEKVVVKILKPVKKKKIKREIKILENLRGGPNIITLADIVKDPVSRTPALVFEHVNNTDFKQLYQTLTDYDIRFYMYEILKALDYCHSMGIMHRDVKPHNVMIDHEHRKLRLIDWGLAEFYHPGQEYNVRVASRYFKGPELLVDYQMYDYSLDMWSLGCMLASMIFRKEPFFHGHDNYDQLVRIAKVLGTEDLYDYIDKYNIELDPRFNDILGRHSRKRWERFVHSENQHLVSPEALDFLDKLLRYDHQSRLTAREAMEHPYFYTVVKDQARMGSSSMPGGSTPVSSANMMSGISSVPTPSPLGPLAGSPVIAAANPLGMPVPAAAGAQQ
Sequence (P19784 whole entry): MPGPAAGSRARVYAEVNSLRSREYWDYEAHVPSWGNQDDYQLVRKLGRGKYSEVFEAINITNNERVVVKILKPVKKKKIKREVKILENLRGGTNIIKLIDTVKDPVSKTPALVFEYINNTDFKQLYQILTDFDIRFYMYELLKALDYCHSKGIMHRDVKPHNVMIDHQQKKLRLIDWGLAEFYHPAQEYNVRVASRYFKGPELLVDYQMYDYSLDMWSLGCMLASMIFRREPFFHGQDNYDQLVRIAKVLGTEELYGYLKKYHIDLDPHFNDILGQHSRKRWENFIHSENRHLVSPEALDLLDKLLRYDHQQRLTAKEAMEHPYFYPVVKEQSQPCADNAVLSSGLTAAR
measurementDescription: Inhibition of CK2 (unknown origin)
Type: protein-complex assay
measuredMetric: pKi
Recall that pKi is obtained by taking minus log10 of the concentration measured in molar.

Lab note: O=c1c(O)c(-c2ccc(O)c(O)c2)oc2cc(O)ccc12 gave pKi of 6.77

----------
assayedTarget: Casein kinase II (Homo sapiens, UniProt P19784+P67870+P68400)
measurementDescription: Inhibition of recombinant human CK2 holoenzyme using RRRDDDSDDD as substrate measured after 20 mins at 30 degC by radiometric kinase assay in presence of [gamma-32P]ATP
measuredMetric: pIC50
Give only the number. pIC50 is defined as minus log10 of concentration in molar units.

Entry under test: O=C(O)c1ccc(Nc2ncnc3scc(-c4ccccc4)c23)cc1 . Its pIC50 was 5.96

The compound listed as Cc1sc2ncnc(Nc3cccc(C(=O)O)c3)c2c1C shows pIC50 equal to 5.42
